# assay_notes: Cytotoxicity assay
# Format: cell-based
# condition_description: African green monkey, Vero cells
observable: CC50 at 48 h (µM)
Give the number; µM is assumed, so skip it.

molecule	CC50 at 48 h, µM
Cc1cc(O)c(=O)c(O)cc1C(=O)Nc1ccc2ccc3cccc4ccc1c2c34 [compound 63]	74.2

Lookup: # input molecule: Cc1cc(O)c(=O)c(O)cc1C(=O)N1CCc2cc(C3CCCCC3)ccc2C1 [compound 64] ; wanted: its CC50 at 48 h
Found: 75.7

Lookup: One more molecule: Cc1cc(O)c(=O)c(O)cc1C(=O)N1CCC2(CC1)C1CC3CC(C1)CC2C3 [compound 66]
Found: 23.7
